System: NCI-H460 lung
Output constraint: value belongs to y for active, n for inactive

Solved entries:
1) N#C/C(=C\c1ccc(Br)cc1)n1nnc2cccc(F)c21: n
2) COc1ccc2nc(NCCCNCCO)c3sc4ccc(F)cc4c(=O)c3c2c1: n
3) CC[N+](CC)=c1ccc2nc3c(cc(NCc4ccccc4)c4ccccc43)oc-2c1: y
4) COc1cc2c3c(n(CCN)c(=O)c2cc1OC)-c1cc2c(cc1C3=O)OCO2: y

Data request: // param item: COc1cc2cc(Oc3ccc(NC(=O)Nc4ccccc4)cc3)c(C)nc2cc1OCCN1CCCCC1 ; yields the recorded call
Data returned: n

Data request: Record request — test call for COc1ccc2cc(C(=O)/C=C/c3cccc(Cl)c3Cl)ccc2c1
Data returned: n

Data request: Can you look up the reported call for COc1cc(NN=C(c2ccc(O)cc2)c2ccc(O)cc2)c([N+](=O)[O-])cc1[N+](=O)[O-] for me?
Data returned: n

Data request: I would be grateful if you could indicate the recorded call for C=C(CNCCc1ccc(O)cc1)[C@@H]1CC[C@]2(CO)CC[C@]3(C)[C@H](CC[C@@H]4[C@@]5(C)CCC(=O)C(C)(C)[C@@H]5CC[C@]43C)[C@@H]12 .
Data returned: n

Data request: Test call for this molecule, please: COc1ccc(-c2cnc(-c3ccc(F)cc3)[nH]2)cc1
Data returned: n
